Test: Binding affinity for DNA assessed as thermal melting temperature
Decision: ΔTm compared against 40 °C; not below it gives condition met, below it gives condition not met.

                              record_smiles     discrete_label
0  Cl.c1cc(C2CCN(c3ccc(NC4=NCCN4)cc3)CC2)ccc1NC1=NCCN1  condition not met
1  Cl.N=C(N)Nc1ccc(C2CCN(c3ccc(NC(=N)N)cc3)CC2)cc1  condition not met
2  Cl.Cl.O=C(Nc1ccc(NC2=NCCN2)cc1)c1ccc(NC2=NCCN2)cc1      condition met
3    N=C(N)Nc1ccc2c(c1)Cc1ccc(NC(=N)N)cc1C2  condition not met
4  N=C(N)Nc1ccc(N2CCN(c3ccc(NC(=N)N)cc3)CC2)cc1  condition not met

###

Assay: Selectivity index, ratio of IC50 for rat L6 cells to IC50 for Trypanosoma brucei rhodesiense STIB900
Format: functional
# Ratio IC50 listing for each entry below
recorded_endpoint: Ratio IC50

>>> print(df.to_string())
                               record_smiles  value_measured
 0  CCOC(CNC(=N)Nc1ccc(Nc2ccc(NC(=N)NCC(OCC)OCC)cc2)cc1)OCC            >767
 1  CCCCC[P+](CCCCC)(CCCCC)Cc1ccc(C(=O)c2ccc(C[P+](CCCCC)(CCCCC)CCCCC)cc2)cc1.[Br-].[Br-]              29
 2       N=C(N)Nc1ccc(Cc2ccc(NC(=N)N)cc2)cc1              17
 3   c1cc(Sc2ccc(NC3=NCCN3)cc2)ccc1NC1=NCCN1              60
 4    N=C(N)Nc1ccc2c(c1)Cc1ccc(NC(=N)N)cc1C2              15
 5      N=C(N)Nc1ccc(CCc2ccc(NC(=N)N)cc2)cc1              24
 6  CCOC(CNC(=N)Nc1ccc(Cc2ccc(NC(=N)NCC(OCC)OCC)cc2)cc1)OCC            >553
 7  N=C(N)Nc1ccc(N2CCN(c3ccc(NC(=N)N)cc3)CC2)cc1             172
 8  Cl.N=C(N)Nc1ccc(NC(=S)Nc2ccc(NC(=N)N)cc2)cc1              29
 9       N=C(N)Nc1ccc(Nc2ccc(NC(=N)N)cc2)cc1              30
10  c1cc2c(cc1NC1=NCCN1)Cc1cc(NC3=NCCN3)ccc1-2           17020
11   N=C(N)Nc1ccc(C(=O)c2ccc(NC(=N)N)cc2)cc1              13
12  Cl.Cl.N=C(N)Nc1ccc(NC(=O)c2ccc(NC(=N)N)cc2)cc1             319
13   c1cc(NC2=NCCN2)ccc1Cc1ccc(NC2=NCCN2)cc1              71
14  c1cc(N2CCN(c3ccc(NC4=NCCN4)cc3)CC2)ccc1NC1=NCCN1             881
15  N=C(N)Nc1ccc(S(=O)(=O)c2ccc(NC(=N)N)cc2)cc1             >51
16   c1cc(Oc2ccc(NC3=NCCN3)cc2)ccc1NC1=NCCN1              88
17  Cl.Cl.O=C(Nc1ccc(NC2=NCCN2)cc1)c1ccc(NC2=NCCN2)cc1            7720
18  Cl.N=C(N)Nc1ccc(NC(=O)Nc2ccc(NC(=N)N)cc2)cc1           >1256
19  c1cc2c(cc1NC1=NCCN1)Cc1ccc(NC3=NCCN3)cc1C2             620
20  Cl.c1cc(C2CCN(c3ccc(NC4=NCCN4)cc3)CC2)ccc1NC1=NCCN1            3474
21  O=S(=O)(c1ccc(NC2=NCCN2)cc1)c1ccc(NC2=NCCN2)cc1              >6
22  Cl.O=C(Nc1ccc(NC2=NCCN2)cc1)Nc1ccc(NC2=NCCN2)cc1             852

###

Assay: Selectivity index, ratio of IC50 for rat L6 cells to IC50 for Trypanosoma brucei rhodesiense STIB900
Assay type: functional
Classification field: rule met = Ratio IC50 at or over 100; rule not met = Ratio IC50 under 100.

>>> df
                              record_smiles  discrete_label
0  c1cc(NC2=NCCN2)ccc1CCc1ccc(NC2=NCCN2)cc1        rule met
1       N=C(N)Nc1ccc(Sc2ccc(NC(=N)N)cc2)cc1    rule not met
2    N=C(N)Nc1ccc2c(c1)Cc1cc(NC(=N)N)ccc1-2        rule met
3   c1cc(Nc2ccc(NC3=NCCN3)cc2)ccc1NC1=NCCN1        rule met
4       N=C(N)Nc1ccc(Oc2ccc(NC(=N)N)cc2)cc1    rule not met
5  Cl.N=C(N)Nc1ccc(C2CCN(c3ccc(NC(=N)N)cc3)CC2)cc1        rule met

###

Items are presented alongside their recorded log10 of IC50.
System: L6
Experiment: Cytotoxicity against rat L6 cells
Assay type: cell-based
recorded_endpoint: log10 of IC50 (log10 of the value in µM)

                              record_smiles  recorded_endpoint  value_measured
 0                    CSc1ccc(NC2=NCCN2)cc1      log10 of IC50            2.24
 1  c1cc(Nc2ccc(NC3=NCCN3)cc2)ccc1NC1=NCCN1      log10 of IC50            2.33
 2  N=C(N)Nc1ccc(C(=O)c2ccc(NC(=N)N)cc2)cc1      log10 of IC50            0.43
 3  c1cc(Oc2ccc(NC3=NCCN3)cc2)ccc1NC1=NCCN1      log10 of IC50            1.61
 4               N=C(N)Nc1ccc(Cc2ccccc2)cc1      log10 of IC50            1.64
 5      N=C(N)Nc1ccc(Sc2ccc(NC(=N)N)cc2)cc1      log10 of IC50            0.42
 6      N=C(N)Nc1ccc(Nc2ccc(NC(=N)N)cc2)cc1      log10 of IC50           -0.19
 7                      CCc1ccc(NC(=N)N)cc1      log10 of IC50            2.49
 8           N=C(N)Nc1ccc(C(=O)c2ccccc2)cc1      log10 of IC50            2.07
 9  c1cc(Sc2ccc(NC3=NCCN3)cc2)ccc1NC1=NCCN1      log10 of IC50            1.37
10               N=C(N)Nc1ccc(Nc2ccccc2)cc1      log10 of IC50            1.69
11   N=C(N)Nc1ccc2c(c1)Cc1cc(NC(=N)N)ccc1-2      log10 of IC50            0.67
12       S=C(Nc1ccccc1)Nc1ccc(NC2=NCCN2)cc1      log10 of IC50            1.96

###

Tested on: L6
Assay: Cytotoxicity against rat L6 cells
Assay type: cell-based
pIC50: −log10 of the molar value.
# pIC50 annotations
recorded_endpoint: pIC50

In [3]: df
Out[3]:
                               record_smiles  recorded_endpoint  comparison_sign  value_measured
 0                       Cc1ccc(NC(=N)N)cc1C              pIC50                =            3.72
 1           N=C(N)Nc1ccc(NC(=O)c2ccccc2)cc1              pIC50                <            3.51
 2                    N=C(N)Nc1ccc2c(c1)CCC2              pIC50                =            4.13
 3  c1cc2c(cc1NC1=NCCN1)Cc1cc(NC3=NCCN3)ccc1-2              pIC50                =            4.08
 4    N=C(N)Nc1ccc2c(c1)Cc1ccc(NC(=N)N)cc1C2              pIC50                =            6.14
 5       N=C(N)Nc1ccc(Oc2ccc(NC(=N)N)cc2)cc1              pIC50                =            5.79
 6                     Cc1ccc(NC2=NCCN2)cc1C              pIC50                <            3.40
 7  Cl.c1cc(C2CCN(c3ccc(NC4=NCCN4)cc3)CC2)ccc1NC1=NCCN1              pIC50                =            3.88
 8  Cl.O=C(Nc1ccc(NC2=NCCN2)cc1)Nc1ccc(NC2=NCCN2)cc1              pIC50                =            3.98
 9  CCCCC[P+](CCCCC)(CCCCC)Cc1ccc(C(=O)c2ccc(C[P+](CCCCC)(CCCCC)CCCCC)cc2)cc1.[Br-].[Br-]              pIC50                =            4.93
10                CCN(CC)c1ccc(NC2=NCCN2)cc1              pIC50                <            3.35
11  N=C(N)Nc1ccc(S(=O)(=O)c2ccc(NC(=N)N)cc2)cc1              pIC50                <            3.65
12                       CSc1ccc(NC(=N)N)cc1              pIC50                =            3.62
13  CCOC(CNC(=N)Nc1ccc(Nc2ccc(NC(=N)NCC(OCC)OCC)cc2)cc1)OCC              pIC50                <            3.76
14  O=S(=O)(c1ccc(NC2=NCCN2)cc1)c1ccc(NC2=NCCN2)cc1              pIC50                <            3.71
15  Cl.Cl.N=C(N)Nc1ccc(NC(=O)c2ccc(NC(=N)N)cc2)cc1              pIC50                =            4.94
16                    CN(C)c1ccc(NC(=N)N)cc1              pIC50                <            3.45
17                       c1ccc(NC2=NCCN2)cc1              pIC50                <            3.34
18       N=C(N)Nc1ccc(Cc2ccc(NC(=N)N)cc2)cc1              pIC50                =            5.55
19                 c1cc2c(cc1NC1=NCCN1)OCCO2              pIC50                <            3.45
20         O=C(Nc1ccc(NC2=NCCN2)cc1)c1ccccc1              pIC50                <            3.55
21                   COc1ccc(NC2=NCCN2)cc1OC              pIC50                <            3.46
22          N=C(N)Nc1ccc(NC(=O)Nc2ccccc2)cc1              pIC50                <            3.63
23            c1ccc(Cc2ccc(NC3=NCCN3)cc2)cc1              pIC50                =            4.14
24                  CCN(CC)c1ccc(NC(=N)N)cc1              pIC50                =            4.11
25                      Nc1ccc(NC2=NCCN2)cc1              pIC50                <            3.37
